target: ZFP SBS#1218 (synthetic)
Sequence (chain, as listed by the source): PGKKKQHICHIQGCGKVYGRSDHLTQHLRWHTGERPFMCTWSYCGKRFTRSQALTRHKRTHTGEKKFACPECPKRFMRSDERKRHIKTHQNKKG
assay explanation: EMSA
condition description: tags: MBP fusion
property name: pKd
API: returns pKd as number; meaning -log10 of concentration in mol/L.

Return reported pKd. Input binder: GCGGTGAGG (dsDNA) DNA 1: GCGGTGAGG DNA 2: CCTCACCGC 9.34
